Listing of recorded viability at 72 h, 10 µM by entry.
Experiment: Cytotoxicity against human KB cells assessed as cell viability at 10 uM after 72 hrs by SRB method relative to control
Type: cell-based
Settings: read-out: Activity
State just the number; it will be interpreted in %.

Sample answers from the record:
COc1cc(C(O)COC(=O)C2CCCCC2)cc(OC)c1OC (stereo unspecified); 98.9
COc1cc(C(O)CO)c(I)c(OC)c1OC (stereo unspecified); 95.1
COc1cc(C(COC(C)=O)OC(C)=O)cc(OC)c1OC (stereo unspecified); 98

Given COc1cc(C(=O)OCC(O[Si](C)(C)C(C)(C)C)c2cc(OC)c(OC)c(OC)c2I)cc(OC)c1OC (stereo unspecified) , respond with its viability at 72 h, 10 µM.
64.2

Given C/C=C/C(=O)OCC(OC(=O)CCCCCCCCCCC)c1cc(OC)c(OC)c(OC)c1 (stereo unspecified) , respond with its viability at 72 h, 10 µM.
91.1

Given COc1cc(C(=O)OCC(O)c2cc(OC)c(OC)c(OC)c2I)cc(OC)c1OC (stereo unspecified) , respond with its viability at 72 h, 10 µM.
77

Given COc1cc(C(=O)OCC(OC(=O)c2cc(OC)c(OC)c(OC)c2)c2cc(OC)c(OC)c(OC)c2I)cc(OC)c1OC (stereo unspecified) , respond with its viability at 72 h, 10 µM.
84.2

Given COc1ccc(/C=C/C(=O)OCC(OC(=O)/C=C/c2ccccc2)c2cc(OC)c(OC)c(OC)c2I)cc1OC (stereo unspecified) , respond with its viability at 72 h, 10 µM.
85.9

Given COc1cc(C(=O)OCC(O[Si](C)(C)C(C)(C)C)c2cc(OC)c(OC)c(OC)c2)cc(OC)c1OC (stereo unspecified) , respond with its viability at 72 h, 10 µM.
83.9

Given C/C=C/C=C/C(=O)OCC(OC(=O)/C=C/C=C/C)c1cc(OC)c(OC)c(OC)c1 (stereo unspecified) , respond with its viability at 72 h, 10 µM.
91.2

Given COc1cc(C(O)CO)cc(OC)c1OC (stereo unspecified) , respond with its viability at 72 h, 10 µM.
101

# credit: ChEMBL document CHEMBL2203070
